# test: NCI Yeast Anticancer Drug Screen. Data for the bub3 strain (AID 167)
# condition description: S. cerevisiae bub3 mutant strain, at 50.0 µM, hits give high values
The panel holds about 79,000 compounds, 15% with a hit somewhere; the sample as a whole holds those more often.
We begin with a simple list: items and their reported growth inhibition.
parameter measured: growth inhibition (%)

compound	readout unit	observed result
C/C(=N/O)c1c[n+]([O-])ccn1	%	4.7
CC1(C)C2CCC1(CC(=O)O)C(O)C2=O (configuration not stated)	%	-4.6
CC1(Cn2ccc(=O)[nH]c2=O)CC(C2(C)OCCO2)C(=O)O1 (configuration not stated)	%	-19
CS(=O)(=O)OCC(=O)NCCCCNC(=O)COS(C)(=O)=O	%	7.45
CCC(=O)OC1C(OC2C(C)C(OC3CC(C)(OC)C(O)C(C)O3)C(C)C(=O)OC(CC)C(C)(O)C(O)C(C)C(=O)C(C)CC2(C)O)OC(C)CC1N(C)C (configuration not stated)	%	-3
Clc1ccccc1CN1COc2c(ccc3ccccc23)C1	%	25.5
CN(C)c1ccc(/C=C2/CC(=O)N(c3ccccc3)C2=O)cc1	%	-0.9
Nc1ccc2c(c1)C1C(C3C2C2(Cl)C(Cl)=C(Cl)C3(Cl)C2(Cl)Cl)C2(Cl)C(Cl)=C(Cl)C1(Cl)C2(Cl)Cl (configuration not stated)	%	50.1
CCOP(=O)(OCC)/C(C#N)=C\c1ccc(OC(C)=O)cc1	%	-25.6
CCOCC(Cl)C(OCC)OCC (configuration not stated)	%	2.85
Cc1ccc(N=Nc2c(O)c3ccccc3[nH]c2=O)c(S(=O)(=O)N(C)C)c1	%	-27.2
O=C1/C(=C/c2ccc3c(c2)CCC3)Cc2cc3c(cc21)CCC3	%	-1.15
CC(C(N)=O)C(=O)c1ccccc1 (configuration not stated)	%	-21.2
Oc1ccc(Br)cc1CNC1CCCCC1	%	27.1
Nc1cc2[nH]cnc2c(=O)[nH]1	%	7.9
CC(=O)/C=C\c1cc(C)ccc1O	%	8.25
COc1ccc(-c2oc3ccc(C)cc3c(=O)c2O)cc1	%	-5.7
CNC(=O)Nc1cc(C)ccc1Cl	%	1.15
CCC(=O)N1NC(=O)C(CC)(CC)C1=O	%	-2.3
CC(C)NC(=O)OCc1c(COC(=O)NC(C)C)n(C)c2c1ccc1ccccc12	%	87.5
C=C1CC(C)(Cn2c(N)nc3nc[nH]c3c2=O)OC1=O (configuration not stated)	%	14.1
BrC1c2ccccc2-c2nc3ccccc3nc21 (configuration not stated)	%	17.1
CC(C(=O)O)[C@H]1CC[C@H]2[C@@H]3CCC4=CC(=O)CC[C@]4(C)[C@H]3CC[C@]12C (some centres not stated)	%	2.5
CCc1cccc(C)c1NC(=S)NC(=O)c1ccccc1C(=O)NC(=S)Nc1c(C)cccc1CC	%	11.8
C=CC1(c2ccc(Cl)c(Cl)c2)OCCO1	%	9.55
Cc1ccc(S(=O)(=O)C23N=NC(C)(C)C2C2CCC3C2)cc1 (configuration not stated)	%	-50.3
CC(=O)Nc1ccc(/C=C2\SC(=S)N(C=C(C#N)C#N)C2=O)cc1	%	15.2
C=C1[C@@H]([C@@]2(C)C=CC(=O)C(C)(C)[C@@H]2CC(=O)OC)CC[C@@]2(C)C(c3ccoc3)OC(=O)[C@H]3O[C@]132 (some centres not stated)	%	16.4
Cc1cc(Cl)ccc1NC(N)=O	%	-3.7
Cc1sc2ccnc(C)c2c1S(=O)(=O)O	%	15.2
CC(C)(c1ccsc1)c1sccc1C(=O)O	%	-2.95
CCOC(=O)NC(Nc1cccc(F)c1)(C(F)(F)F)C(F)(F)F	%	-12.3
COC1=C(C#N)C(c2ccccc2)CC(N)=N1 (configuration not stated)	%	-1
Cn1c(N)cc(=O)n(C)c1=O	%	17.5
O=C(O)C(c1ccccc1)C(O)C1CCCC1 (configuration not stated)	%	-7.3
C=C(S(=O)(=O)c1ccccc1)S(=O)(=O)c1ccccc1 (tested in a mixture with another compound)	%	97.8
Cc1ccc2ccccc2c1Br	%	-3.2
COC12COC(=O)C1C(c1ccc3c(c1)OCO3)c1cc3c(cc1O2)OCO3 (configuration not stated)	%	17.4
COc1ccccc1NC(=S)N/N=C(/c1ccccc1)c1ccccn1	%	20.2
Clc1ccccc1C=NCCN=Cc1ccccc1Cl	%	3.4
N#CN=CN1CCN(c2ccccc2)CC1	%	-5.4
CCCCCCCCCCCCCCCCC1=CC(=O)C=C(OC)C1=O	%	-0.15
CCN(CC)S(=O)(=O)Nc1c(C)n(C)n(-c2ccccc2)c1=O	%	-2
CSc1nc(Cl)nc2[nH]ncc12	%	4.45
CCC(=O)Oc1ccc(CCC(C)=O)cc1	%	-10.6
CCOC(=O)C1C(=O)C(=O)N(C)C1c1ccccc1 (configuration not stated)	%	2.7
COc1ccc(CCN2C(=O)C(=O)N(c3ccc(Cl)c(Cl)c3)C2=O)cc1OC	%	-4.35
